experiment: Rough solubility of the amorphous phosphate in solvents; format: physicochemical; settings: DCM, organic solvent or mixture, thermodynamic from solid
parameter: solubility

Qu. For C[C@@H]1c2cnc(C(F)(F)F)n2CCN1C(=O)C[C@H](N)Cc1cc(F)c(F)cc1F [Example 1] , what is its reported solubility?
Ans. < 1100 µg/mL

----------
I'd be grateful if you could share measured concentration at 1.33 h for these entries.
assay: PK/PD experiment of ICR mice: plasma concentration; format: in vivo, CD-1 (ICR) mice; conditions: CD-1 (ICR), mouse, oral dose 3 mg/kg, 1.33 hours
I only need the number, in ng/mL, no unit after it.

Qu. What does the record list as concentration at 1.33 h for C[C@@H]1c2cnc(C(F)(F)F)n2CCN1C(=O)C[C@H](N)Cc1cc(F)c(F)cc1F [DPPIV-P1] ?
Ans. 292

Qu. Cool, now N[C@@H](CC(=O)N1CCn2c(nnc2C(F)(F)F)C1)Cc1cc(F)c(F)cc1F [Sitagliptin phosphate, reference compound]
Ans. 159

----------
assay: Rough solubility of the amorphous phosphate in solvents; assay type: physicochemical; details: EtOH, organic solvent or mixture, thermodynamic from solid
parameter: solubility

Qu. Please report the recorded solubility for `C[C@@H]1c2cnc(C(F)(F)F)n2CCN1C(=O)C[C@H](N)Cc1cc(F)c(F)cc1F` .
Ans. 57.5 to 115 mg/mL

----------
Experiment: PK/PD experiment of ICR mice: plasma concentration
Assay type: in vivo, CD-1 (ICR) mice
Settings: CD-1 (ICR), mouse, oral dose 1 mg/kg, 1.67 hours
Protocol: Experimental animals: CD-1 (ICR) mice aged for 4 weeks and weighed for about 18-22 g. Grouping and administration scheme: the mice were fed adaptively, randomly grouped according to the weight on the day before experiment, and fasted overnight. […] Research on pharmacodynamics-plasma concentration correlation: blood samples were collected at time points of 1 h, 1.33 h, 1.67 h, 2 h and 3 h after administration, and the plasma concentration was measured. […]
parameter: concentration at 1.67 h (ng/mL)
Only the number, expressed in ng/mL, is required.

Qu. Form field: reported concentration at 1.67 h of C[C@@H]1c2cnc(C(F)(F)F)n2CCN1C(=O)C[C@H](N)Cc1cc(F)c(F)cc1F [DPPIV-P1]
Ans. 75.2

----------
experiment: Rough solubility of the amorphous phosphate in solvents; format: physicochemical; conditions: 2-MeTHF, organic solvent or mixture, thermodynamic from solid
parameter: solubility

Qu. # input compound: `C[C@@H]1c2cnc(C(F)(F)F)n2CCN1C(=O)C[C@H](N)Cc1cc(F)c(F)cc1F` ; wanted: its solubility
Ans. 38.3 to 57.5 mg/mL

----------
experiment: Rough solubility of the amorphous phosphate in solvents; format: physicochemical; conditions: Hexane, organic solvent or mixture, thermodynamic from solid
parameter: solubility

Qu. State the recorded solubility for this entry: C[C@@H]1c2cnc(C(F)(F)F)n2CCN1C(=O)C[C@H](N)Cc1cc(F)c(F)cc1F [Example 1]
Ans. < 1200 µg/mL

----------
test: Rough solubility of the amorphous phosphate in solvents; assay type: physicochemical; conditions: isoamyl alcohol, organic solvent or mixture, thermodynamic from solid
parameter: solubility

Qu. What does the record list as solubility for C[C@@H]1c2cnc(C(F)(F)F)n2CCN1C(=O)C[C@H](N)Cc1cc(F)c(F)cc1F [Example 1] ?
Ans. 10 to 13.3 mg/mL

----------
assay: Rough solubility of the amorphous phosphate in solvents; format: physicochemical; conditions: organic solvent or mixture, thermodynamic from solid; 1- Octanol
parameter: solubility

Qu. Endpoint output: solubility of `C[C@@H]1c2cnc(C(F)(F)F)n2CCN1C(=O)C[C@H](N)Cc1cc(F)c(F)cc1F` . Value?
Ans. < 0.9 mg/mL

----------
test: Rough solubility of the amorphous phosphate in solvents; type: physicochemical; conditions: ACN, organic solvent or mixture, thermodynamic from solid
parameter: solubility

Qu. Please report the recorded solubility for C[C@@H]1c2cnc(C(F)(F)F)n2CCN1C(=O)C[C@H](N)Cc1cc(F)c(F)cc1F [Example 1] .
Ans. 57.5 to 115 mg/mL

----------
assay: Rough solubility of the amorphous phosphate in solvents; format: physicochemical; conditions: MIBK, organic solvent or mixture, thermodynamic from solid
parameter: solubility

Qu. I have this molecule here, `C[C@@H]1c2cnc(C(F)(F)F)n2CCN1C(=O)C[C@H](N)Cc1cc(F)c(F)cc1F` , and I need its recorded solubility.
Ans. < 1000 µg/mL

----------
assay: PK/PD experiment of ICR mice: plasma concentration; format: in vivo, CD-1 (ICR) mice; conditions: CD-1 (ICR), mouse, oral dose 0.1 mg/kg, 1.67 hours
parameter: concentration at 1.67 h (ng/mL)
Express your answer in ng/mL, writing the number without its unit.

Qu. Need concentration at 1.67 h, item C[C@@H]1c2cnc(C(F)(F)F)n2CCN1C(=O)C[C@H](N)Cc1cc(F)c(F)cc1F [DPPIV-P1]
Ans. 6.46

----------
test: PK/PD experiment of ICR mice: plasma concentration; type: in vivo, CD-1 (ICR) mice; settings: CD-1 (ICR), mouse, oral dose 0.1 mg/kg, 3 hours
parameter: concentration at 3 h

Qu. Consider the compound C[C@@H]1c2cnc(C(F)(F)F)n2CCN1C(=O)C[C@H](N)Cc1cc(F)c(F)cc1F [DPPIV-P1] and give its measured concentration at 3 h.
Ans. 4.85 ng/mL

----------
test: PK/PD experiment of ICR mice: plasma concentration; assay type: in vivo, CD-1 (ICR) mice; settings: CD-1 (ICR), mouse, oral dose 0.3 mg/kg, 2 hours
parameter: concentration at 2 h
The reply should read as a number followed by its unit.

Qu. Given C[C@@H]1c2cnc(C(F)(F)F)n2CCN1C(=O)C[C@H](N)Cc1cc(F)c(F)cc1F [DPPIV-P1] , state its recorded concentration at 2 h.
Ans. 20.5 ng/mL

----------
experiment: PK/PD experiment of ICR mice: plasma concentration; type: in vivo, CD-1 (ICR) mice; conditions: CD-1 (ICR), mouse, oral dose 3 mg/kg, read-out: Drug exposure (AUCeff0-3 h)
parameter: AUC (ng·h/mL)
Quick reminder: number only, in ng·h/mL, skip the unit.

Qu. May I ask what AUC has been recorded for N[C@@H](CC(=O)N1CCn2c(nnc2C(F)(F)F)C1)Cc1cc(F)c(F)cc1F [Sitagliptin phosphate, reference compound] ?
Ans. 370

Qu. // same read-out, input: C[C@@H]1c2cnc(C(F)(F)F)n2CCN1C(=O)C[C@H](N)Cc1cc(F)c(F)cc1F [DPPIV-P1]
Ans. 542

----------
assay: Rough solubility of the amorphous phosphate in solvents; assay type: physicochemical; settings: DMF, organic solvent or mixture, thermodynamic from solid
parameter: solubility

Qu. Data request, read-out solubility, for C[C@@H]1c2cnc(C(F)(F)F)n2CCN1C(=O)C[C@H](N)Cc1cc(F)c(F)cc1F [Example 1]
Ans. < 42 mg/mL

----------
I'd be grateful if you could share measured concentration at 1.67 h for these entries.
experiment: PK/PD experiment of ICR mice: plasma concentration; type: in vivo, CD-1 (ICR) mice; conditions: CD-1 (ICR), mouse, oral dose 3 mg/kg, 1.67 hours
Use ng/mL as the unit, but write only the number.

Qu. // lookup concentration at 1.67 h for C[C@@H]1c2cnc(C(F)(F)F)n2CCN1C(=O)C[C@H](N)Cc1cc(F)c(F)cc1F [DPPIV-P1]
Ans. 242

Qu. Query N[C@@H](CC(=O)N1CCn2c(nnc2C(F)(F)F)C1)Cc1cc(F)c(F)cc1F [Sitagliptin phosphate, reference compound] next
Ans. 152

----------
experiment: Rough solubility of the amorphous phosphate in solvents; format: physicochemical; conditions: n-butyl alcohol, organic solvent or mixture, thermodynamic from solid
parameter: solubility

Qu. Entry `C[C@@H]1c2cnc(C(F)(F)F)n2CCN1C(=O)C[C@H](N)Cc1cc(F)c(F)cc1F` has what solubility?
Ans. 60 to 120 mg/mL

----------
assay: Rough solubility of the amorphous phosphate in solvents; assay type: physicochemical; details: n-amyl alcohol, organic solvent or mixture, thermodynamic from solid
parameter: solubility

Qu. Given the entry C[C@@H]1c2cnc(C(F)(F)F)n2CCN1C(=O)C[C@H](N)Cc1cc(F)c(F)cc1F [Example 1] , report its measured solubility.
Ans. 6800 to 8500 µg/mL

----------
Assay: PK/PD experiment of ICR mice: plasma concentration
Format: in vivo, CD-1 (ICR) mice
Settings: CD-1 (ICR), mouse, oral dose 3 mg/kg, 3 hours
Protocol: Experimental animals: CD-1 (ICR) mice aged for 4 weeks and weighed for about 18-22 g. Grouping and administration scheme: the mice were fed adaptively, randomly grouped according to the weight on the day before experiment, and fasted overnight. […] Research on pharmacodynamics-plasma concentration correlation: blood samples were collected at time points of 1 h, 1.33 h, 1.67 h, 2 h and 3 h after administration, and the plasma concentration was measured. […]
parameter: concentration at 3 h

Qu. I'd like to know its concentration at 3 h. The molecule in question is C[C@@H]1c2cnc(C(F)(F)F)n2CCN1C(=O)C[C@H](N)Cc1cc(F)c(F)cc1F [DPPIV-P1]
Ans. 151 ng/mL

Qu. Next up: N[C@@H](CC(=O)N1CCn2c(nnc2C(F)(F)F)C1)Cc1cc(F)c(F)cc1F [Sitagliptin phosphate, reference compound]
Ans. 97.9 ng/mL
